- Tested on: A549
- assay_protocol: cells
- Assay type: functional, cell-based
- measurement_setup: Homo sapiens, A549, 72 h

# line_notation, assayed_system, IC50 [µM]
measured = [
    ("O=C(CCCCCCC(=O)Nc1nc2c(s1)C[C@@H](NC(=O)c1cccc3ccccc13)CC2)NO", "A549", 1.22),
]

* * *

- assay_protocol: Metabolic stability in mouse liver microsomes assessed as half life incubated for 60 mins in presence of NADPH by LC-MS/MS analysis
- Assay type: ADME, Microsome
property_label: half-life

# line_notation, property_label, measured_value
data = [
    ("COc1cc(/C=C/C(=O)CC(=O)/C=C/c2ccc(/C=C/C(=O)NO)cc2)ccc1O", "half-life", "32.7 min"),
]

Where do these numbers come from? They come from ChEMBL document CHEMBL5614367.
